B1: ACSBG2 (parent)
chain: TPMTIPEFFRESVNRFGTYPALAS

variants of: B1; experiment: protein stability index of a GFP-peptide fusion (GPS, HEK-293T) (PSI 1-6); higher = more stable; settings: c terminus: a fixed tail appended;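 also: lentivirally expressed fusions sorted by FACS into six bins by GFP to DsRed ratio, PSI derived from sequencing read proportions per bin multiplied by bin number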
property: protein stability index
Lab note: record the figure alone, no unit after it.

[in] Could you share which protein stability index value was measured for TPMTIQEFFRESVNRFGTYPALAS [P6Q] ?
[out] 1.93

[in] Sample TPMTIPEFSRESVNRFGTYPALAS [F9S] — what was its protein stability index?
[out] 2.71

[in] Requested field: protein stability index. Item: TPMTIPEFFRESVNRFGIYPALAS [T18I]
[out] 2.02

[in] Quick one: protein stability index for TPMTIPEFFRESVNRPGTYPALAS [F16P] ?
[out] 2.92

[in] Fill in: protein stability index of TPMTIPEFFRESVPRFGTYPALAS [N14P] is ___
[out] 2.66

[in] Please look up its protein stability index: TPMTIPEFFRESVNRFGTYPRLAS [A21R]
[out] 2.16

[in] Consider the variant TCMTIPEFFRESVNRFGTYPALAS [P2C] and give its measured protein stability index.
[out] 1.72

[in] Dear colleague, I am looking for the recorded protein stability index of the following variant: TPMYIPEFFRESVNRFGTYPALAS [T4Y]
[out] 2.62

[in] # input variant: TPMTIPEFFRESVNRFGTYCALAS [P20C] ; wanted: its protein stability index
[out] 1.97

[in] So what does the record say about protein stability index for TPMTIPEFFRESHNRFGTYPALAS [V13H] ?
[out] 2.59

[in] Sample TPMTIPEFFRESVNPFGTYPALAS [R15P] — what was its protein stability index?
[out] 2.04

[in] Reported protein stability index for TPMPIPEFFRESVNRFGTYPALAS [T4P] : what is it?
[out] 2.73

[in] Find the recorded protein stability index belonging to TPMTIPEFFRESVKRFGTYPALAS [N14K] and report it.
[out] 2.54

[in] // lookup protein stability index for TPMTIPEFFREGVNRFGTYPALAS [S12G]
[out] 2.48

[in] Tell me the measured protein stability index of TPMTIPEFFRESVNRFGTPPALAS [Y19P] , please.
[out] 2.87

[in] Would you mind telling me what protein stability index value was observed for TPMTIPQFFRESVNRFGTYPALAS [E7Q] ?
[out] 2.02

[in] Looking for the measured protein stability index of TPMTIPEVFRESVNRFGTYPALAS [F8V] , can you help?
[out] 2.14

[in] Suppose we examine the variant TPMTIPEFFRESVNRFGTYPALRS [A23R] ; what protein stability index value has been reported?
[out] 2.56

[in] Given the variant TPMTIPEFFRESVNMFGTYPALAS [R15M] , what is its reported protein stability index?
[out] 1.8

[in] Value lookup for protein stability index; key = TPMTIPEHFRESVNRFGTYPALAS [F8H]
[out] 2.45

[in] If you can, please state the reported protein stability index value of TPMTIPEFFHESVNRFGTYPALAS [R10H] .
[out] 2.15

[in] If you can, please state the reported protein stability index value of TPPTIPEFFRESVNRFGTYPALAS [M3P] .
[out] 2.02
